targetOfAssay: wild type chromodomain of CBX1 (Chromobox protein 1) (UniProt P83916 20-73)
Sequence (P83916 20-73): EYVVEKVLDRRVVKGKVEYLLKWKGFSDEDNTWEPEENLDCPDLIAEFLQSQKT
methodSummary: fluorescence polarisation
pKd: −log10 of the molar value.
testReadout: pKd

INSERT INTO assay_data (binder, numericresult) VALUES
  ('ARTKQTARKSTGGKA (trimethyllysine at K9; tetramethyl rhodamine (TAMRA) at the N-terminus) [TAMRA-H3K9me3 tracer peptide 2]', 5.77);
